- Read-out: growth arrest and DNA damage 45 (GADD45B), GADD45B (gene 4616)
- procedure details: LTEA_HepaRG_GADD45B: Life Technologies and Expression Analysis (LTEA) Assay for growth arrest and DNA damage 45 (GADD45B) using HepaRG (AID 2283461)
- experimental context: mRNA level, 48 h; actives raise or lower the signal
Active and inactive are the calls of the source. The calls were made as follows: active = hit-call score of the fitted dose curve at least 0.9, where 1 is the maximum; inactive = score below 0.9.
Choose the fitting class; nothing outside true (active), false (inactive) is accepted.

Here's what some known entries look like.
>>> print(df.to_string())
                                   molecule  assigned_label
0                     O=C(c1ccccc1)c1ccccc1           false
1                   CCCCCCCCCCCCOS(=O)(=O)O           false
2  Cc1[nH]nc2c1N=C(c1ccccc1Cl)c1cc([N+](=O)[O-])ccc1N2            true

Task item: What classification did CC(=O)Nc1ccc(O)cc1 end up with in this test?
Reply: false

Task item: What classification did OCC(CO)(CBr)CBr end up with in this test?
Reply: false

Task item: What classification did CCCCCCCCCCCCCCC end up with in this test?
Reply: false

Task item: What classification did CCCCC=O end up with in this test?
Reply: false

Task item: What classification did N=C(N)c1ccc(OCCCCCOc2ccc(C(=N)N)cc2)cc1 end up with in this test?
Reply: true

Task item: What classification did CCCCC(CC)C(=O)O (centres undefined) end up with in this test?
Reply: false

====

- Read-out: CD38, CD38 (gene 952)
- procedure details: BSK_SAg_CD38: BioMAP Diversity Plus: SAg Assay for CD38 Biomarker Activity (AID 2283087)
- experimental context: primary human HUVEC with PBMC; actives raise or lower the signal
Active and inactive are the calls of the source. The calls were made as follows: active = hit-call score of the fitted dose curve at least 0.9, where 1 is the maximum; inactive = score below 0.9.
Choose the fitting class; nothing outside true for active, false for inactive is accepted.

Here's what some known entries look like.
                                   compound  assigned_label
0  COC1=CC(=O)C[C@@H](C)[C@]12Oc1c(Cl)c(OC)cc(OC)c1C2=O           false
1  CN(C)c1ccc(C(=C2C=CC(=[N+](C)C)C=C2)c2ccccc2)cc1            true
2     CCCCCCCCCCCCCCCCCC[N+](C)(C)Cc1ccccc1            true
3  CCOC(=O)CN[C@@H](C(=O)N1CC[C@H]1C(=O)NCc1ccc(/C(N)=N/O)cc1)C1CCCCC1           false
4  O=C(NCc1ncc(C(F)(F)F)cc1Cl)c1c(Cl)cccc1Cl           false
5  O=C(O)CCC(F)(F)C(F)(F)C(F)(F)C(F)(F)C(F)(F)F           false
6                    CC(C)(C)c1ccc(O)c(O)c1            true
7   N=C(N)c1ccc(OCCCCCOc2ccc(C(=N)N)cc2)cc1           false

Task item: What classification did CCCCC=O end up with in this test?
Reply: false

Task item: What classification did C=COC(=O)C(C)(C)CCCCCC end up with in this test?
Reply: false

Task item: What classification did C=CC(=C)CC/C=C(\C)CCC=C(C)C end up with in this test?
Reply: false

Task item: What classification did CCCCCc1ccc(O)cc1 end up with in this test?
Reply: true

Task item: What classification did CN(C)CCOC(c1ccccc1)c1ccccc1 end up with in this test?
Reply: false

Task item: What classification did CCCCCCCCCCCCCCC end up with in this test?
Reply: false

Task item: What classification did C[C@]12CC[C@@H]3c4ccc(O)cc4CC[C@H]3[C@@H]1C[C@@H](O)[C@@H]2O end up with in this test?
Reply: false

Task item: What classification did CN(Cc1cnc2nc(N)nc(N)c2n1)c1ccc(C(=O)N[C@@H](CCC(=O)O)C(=O)O)cc1 end up with in this test?
Reply: false

Task item: What classification did C=CC(C)(CCC=C(C)C)OC(C)=O (configuration not stated) end up with in this test?
Reply: false

Task item: What classification did O=C1c2ccc(O)c(O)c2C(=O)c2c(O)ccc(O)c21 end up with in this test?
Reply: false

Task item: What classification did CCCCCCCCCCCC end up with in this test?
Reply: false

Task item: What classification did O=C(O)CCC(F)(F)C(F)(F)C(F)(F)C(F)(F)C(F)(F)C(F)(F)F end up with in this test?
Reply: false

Task item: What classification did OCC(CO)(CBr)CBr end up with in this test?
Reply: false

Task item: What classification did O=C(CCCN1CCC(O)(c2ccc(Cl)cc2)CC1)c1ccc(F)cc1 end up with in this test?
Reply: false

Task item: What classification did CS(=O)(=O)c1ccc([C@@H](CC2CCCC2)C(=O)Nc2cnccn2)cc1Cl end up with in this test?
Reply: false

Task item: What classification did O=C(c1ccccc1)c1ccccc1 end up with in this test?
Reply: false

Task item: What classification did OCCN1CN(CCO)CN(CCO)C1 end up with in this test?
Reply: true

Task item: What classification did Cc1ccc(N=Nc2c(O)ccc3ccccc23)c(C)c1 end up with in this test?
Reply: false

Task item: What classification did O=C(NO)c1ccccc1 end up with in this test?
Reply: false

Task item: What classification did O=P(O)(O)CCC(F)(F)C(F)(F)C(F)(F)C(F)(F)C(F)(F)C(F)(F)F end up with in this test?
Reply: false

Task item: What classification did COc1cccc(O)c1 end up with in this test?
Reply: false

Task item: What classification did CCCCCCCCCCCCOS(=O)(=O)O end up with in this test?
Reply: false

Task item: What classification did Oc1cc2ccccc2cc1O end up with in this test?
Reply: false

Task item: What classification did Cc1[nH]nc2c1N=C(c1ccccc1Cl)c1cc([N+](=O)[O-])ccc1N2 end up with in this test?
Reply: true
